pIC50: recorded values
Tested on: human breast cancer cell line MCF7
Assay: Cytostatic activity in vitro, breast cancer MCF7
Format: cell-based
Conditions: Homo sapiens, MCF7; 72 h continuous exposure
Notebook: values listed as pIC50 are -log10 of the concentration (mol/L).

So for COc1cccc2c1C(=O)c1c(O)c3c(c(O)c1C2=O)C[C@@](O)(C(=O)CO)C[C@@H]3O[C@H]1C[C@H](N)[C@H](O)[C@H](C)O1 [Doxorubicin, reference compound] , the logged pIC50 turned out to be 7.72

So for O=C1c2c(O)ccc(O)c2C(=O)c2c(NCCNCCO)ccc(NCCNCCO)c21 [Mitoxantrone, reference compound] , the logged pIC50 turned out to be 8.13
